assay.system: T1, 4H1392-AA
T1 chain: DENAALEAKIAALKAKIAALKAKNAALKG
run.description: two-hybrid library CCmax;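 also: natural log of median RNA to DNA barcode read ratio; higher means stronger binding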
condition.info: mean of both orientations
Decide using interaction score alone. Strictly below -0.2: t. Equal to or above -0.2: f.

Some solved entries appear below for comparison.
>>> assigned_class("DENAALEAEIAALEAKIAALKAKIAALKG [4H1070-AA]")
"t"
>>> assigned_class("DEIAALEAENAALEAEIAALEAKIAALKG [4H134-AA]")
"f"
>>> assigned_class("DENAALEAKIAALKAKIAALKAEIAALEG [4H1385-AA]")
"t"
>>> assigned_class("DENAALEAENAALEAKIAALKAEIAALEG [4H1193-AA]")
"t"

# input for lookup
**Q:** Threshold test, interaction score < -0.2: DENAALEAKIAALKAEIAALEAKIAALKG [4H1350-AA]
**A:** f
